Assign Population Pyknosed Nuclei (%) to each entry below.
- System: U2OS
- assay_comment: Multiplex assay against U2OS
- Assay type: toxicity, cell-based
- condition_notes: human, 48 h, 10 µM, compound concentration 10 uM, replicate 1

Need Population Pyknosed Nuclei (%), item Cc1cc(-c2ccc3c(c2)CC[C@H]3N2CC3(CCN(C(=O)Cc4cn5cc(C)sc5n4)CC3)C2)ncn1 12%

Need Population Pyknosed Nuclei (%), item Nc1nc(CC(=O)Nc2ccc(CCNC[C@H](O)c3ccccc3)cc2)cs1 10%

Need Population Pyknosed Nuclei (%), item COCCn1c(C)c(C)s/c1=N\C(=O)C1C(C)(C)C1(C)C 14%

Need Population Pyknosed Nuclei (%), item CN(C)C(=O)Cn1cc(-c2ccc(-c3nnc4ccccn34)cc2)cn1 11%

Need Population Pyknosed Nuclei (%), item O=C(Nc1cc(-c2ccccc2)nn1-c1ccccc1F)c1ccc([N+](=O)[O-])cc1 12%

Need Population Pyknosed Nuclei (%), item O=c1nc2[nH]c3ccccc3nc-2c(=O)[nH]1 6%

====

Assign Population Apoptotic (%) to each entry below.
- Tested on: Fibroblast
- assay_comment: Multiplex assay against human fibroblast
- Type: toxicity, cell-based
- condition_notes: 48 h, 1 µM, compound concentration 1 uM, replicate 2
The reply should contain only the number, in %.

Need Population Apoptotic (%), item CN1CCN2c3ccccc3Cc3ccccc3C2C1.Cl (stereo unspecified) [MIANSERIN HYDROCHLORIDE] 46

Need Population Apoptotic (%), item Cc1sc2c(c1C)C(c1ccc(Cl)cc1)=N[C@H](CC(=O)OC(C)(C)C)c1nnc(C)n1-2 53

Need Population Apoptotic (%), item O=c1nc2[nH]c3ccccc3nc-2c(=O)[nH]1 [ALLOXAZINE] 39

Need Population Apoptotic (%), item CCCCC[C@H](O)/C=C/[C@H]1[C@H](O)CC(=O)[C@@H]1CCCCCCC(=O)O [ALPROSTADIL] 55

Need Population Apoptotic (%), item CC(C)(C)c1ccc(CSc2cnn(C(C)(C)C)c(=O)c2Cl)cc1 [PYRIDABEN] 45

Need Population Apoptotic (%), item O=C(NCCNCC(O)COc1ccc(O)cc1)N1CCOCC1.O=C(NCCNCC(O)COc1ccc(O)cc1)N1CCOCC1.O=C(O)/C=C/C(=O)O (stereo unspecified) [XAMOTEROL FUMARATE] 40

Need Population Apoptotic (%), item CC(C)(O)C(=O)N1CCN(c2ccc(C(F)(F)F)c(C3=C(c4c[nH]c5ccccc45)C(=O)NC3=O)c2)CC1 41

Need Population Apoptotic (%), item COc1cc(OC2CCN(C(C)=O)CC2)ccc1C(=O)N1CCC(N2C(=O)OCc3ccccc32)CC1 58

Need Population Apoptotic (%), item S=C(NCCCc1c[nH]cn1)NCCCN(Cc1ccc(Cl)c(Cl)c1)c1ccc(Br)cn1 35

Need Population Apoptotic (%), item CC(C)C[C@H](CO)Nc1nc(S[C@@H](C)c2ccccc2)nc2nc(N)sc12 [AZD-8797] 47

Need Population Apoptotic (%), item COc1cc(C(=O)N2CC[C@@H](O)[C@@H](N)C2)cc2nc(-c3cc4ccccc4n3CC3CC3)n(C)c12.Cl 64

====

- Test system: HEK-293T
- assay_comment: Multiplex assay against HEK293T
- Format: toxicity, cell-based
- condition_notes: human, 48 h, 1 µM, compound concentration 1 uM, replicate 2
Definition: the class of an entry is the range in small value (below 3%), mid value (3% to below 5%), large value (5% or more) that contains its Population Hoechst High Intensity Objects (%).

# classify by Population Hoechst High Intensity Objects (%) band: C[C@H](NC(=O)CNC(=O)c1cccc(Cl)c1)c1ccccc1 small value

# classify by Population Hoechst High Intensity Objects (%) band: COc1cc(Nc2ncc3c(n2)-c2ccc(Cl)cc2C(c2c(F)cccc2OC)=NC3)ccc1C(=O)O large value

# classify by Population Hoechst High Intensity Objects (%) band: O=C(Nc1cc(-c2ccccc2)nn1-c1ccccc1F)c1ccc([N+](=O)[O-])cc1 small value

# classify by Population Hoechst High Intensity Objects (%) band: COc1cc(OC2CCN(C(C)=O)CC2)ccc1C(=O)N1CCC(N2C(=O)OCc3ccccc32)CC1 small value

# classify by Population Hoechst High Intensity Objects (%) band: Cn1cc(C(=O)OCC2CCN(CCNS(C)(=O)=O)CC2)c2ccccc21 mid value

# classify by Population Hoechst High Intensity Objects (%) band: COc1cc2nc(N3CCN(C(=O)c4ccco4)CC3)nc(N)c2cc1OC.Cl [PRAZOSIN HYDROCHLORIDE] small value

# classify by Population Hoechst High Intensity Objects (%) band: Cc1cc(=O)n(C)c2cc(N3C(=O)CC[C@H](NS(=O)(=O)CC(C)C)[C@H]3c3ccc(Cl)cc3)ccc12 large value

# classify by Population Hoechst High Intensity Objects (%) band: Cc1nn(C)c2nc(NNC(=O)Nc3cc(Cl)nc(Cl)c3)cc(C(C)C)c12 small value

# classify by Population Hoechst High Intensity Objects (%) band: Cc1sc2c(c1C)C(c1ccc(Cl)cc1)=N[C@H](CC(=O)OC(C)(C)C)c1nnc(C)n1-2 mid value

# classify by Population Hoechst High Intensity Objects (%) band: COCCCN1CCC(NC(=O)c2cc(Cl)c(N)c3c2OCC3)CC1 [PRUCALOPRIDE] small value

# classify by Population Hoechst High Intensity Objects (%) band: OCCCNc1cc(-c2ccnc(Nc3cccc(Cl)c3)n2)ccn1 large value

# classify by Population Hoechst High Intensity Objects (%) band: S=C(NCCCc1c[nH]cn1)NCCCN(Cc1ccc(Cl)c(Cl)c1)c1ccc(Br)cn1 large value

# classify by Population Hoechst High Intensity Objects (%) band: O=c1nc2[nH]c3ccccc3nc-2c(=O)[nH]1 mid value

# classify by Population Hoechst High Intensity Objects (%) band: COc1cc(C(=O)N2CC[C@@H](O)[C@@H](N)C2)cc2nc(-c3cc4ccccc4n3CC3CC3)n(C)c12.Cl large value

# classify by Population Hoechst High Intensity Objects (%) band: N[C@](CC1c2ccccc2Oc2ccccc21)(C(=O)O)[C@H]1C[C@@H]1C(=O)O small value

# classify by Population Hoechst High Intensity Objects (%) band: Nc1nc(-c2ccco2)c2cnn(Cc3ccccc3F)c2n1 mid value
